Target: P2X7 receptor (Homo sapiens, UniProt Q99572)
Sequence (Q99572 whole entry): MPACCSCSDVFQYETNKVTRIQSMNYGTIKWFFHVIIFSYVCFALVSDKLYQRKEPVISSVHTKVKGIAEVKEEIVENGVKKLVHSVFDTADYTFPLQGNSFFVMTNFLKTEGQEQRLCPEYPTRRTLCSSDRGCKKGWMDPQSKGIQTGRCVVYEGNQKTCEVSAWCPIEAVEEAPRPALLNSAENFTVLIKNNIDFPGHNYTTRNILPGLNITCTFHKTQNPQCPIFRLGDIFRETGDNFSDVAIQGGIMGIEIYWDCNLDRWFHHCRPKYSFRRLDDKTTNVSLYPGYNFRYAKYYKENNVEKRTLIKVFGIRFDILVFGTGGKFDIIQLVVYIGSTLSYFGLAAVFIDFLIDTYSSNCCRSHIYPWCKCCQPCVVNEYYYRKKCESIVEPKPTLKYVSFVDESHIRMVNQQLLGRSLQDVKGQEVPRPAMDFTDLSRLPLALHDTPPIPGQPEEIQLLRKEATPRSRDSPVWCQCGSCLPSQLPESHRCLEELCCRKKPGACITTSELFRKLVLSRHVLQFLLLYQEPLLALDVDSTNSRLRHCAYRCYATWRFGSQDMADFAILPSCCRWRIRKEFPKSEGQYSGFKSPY
Test: Inhibition of ATP-induced calcium influx in human monocytes (fura-2/AM)
Assay type: cell-based
Set-up: endogenous in cells; host or cells: human monocytes
Details: inhibiting calcium influx in human monocytes in the presence of 1 mM ATP; read-out: P2X7 Antagonist Activity IC50
Simple rule here: IC50 less than 200 nM is t, otherwise f.

For this compound, is IC50 lower than 200 nM? CN([C@@H](Cc1ccc(OS(=O)(=O)c2cccc3cnccc23)cc1)C(=O)N1CCN(c2ccc(I)cc2)CC1)S(=O)(=O)c1cccc2cnccc12
t

For this compound, is IC50 lower than 200 nM? CN([C@@H](Cc1ccc(OS(=O)(=O)c2cccc3cnccc23)cc1)C(=O)N1CCN(Cc2ccc(F)cc2)CC1)S(=O)(=O)c1cccc2cnccc12
t

For this compound, is IC50 lower than 200 nM? CC(=O)c1ccc(N2CCN(C(=O)[C@H](Cc3ccc(OS(=O)(=O)c4cccc5cnccc45)cc3)N(C)S(=O)(=O)c3cccc4cnccc34)CC2)cc1
t

For this compound, is IC50 lower than 200 nM? CN([C@@H](Cc1ccc(OS(=O)(=O)c2cccc3cnccc23)cc1)C(=O)N1CCN(c2ccc(Cl)cc2)CC1)S(=O)(=O)c1cccc2cnccc12
t

For this compound, is IC50 lower than 200 nM? CN([C@@H](Cc1ccc(OS(=O)(=O)c2cccc3cnccc23)cc1)C(=O)N1CCN(C(=O)c2ccc(F)cc2)CC1)S(=O)(=O)c1cccc2cnccc12
f

For this compound, is IC50 lower than 200 nM? CN([C@@H](Cc1ccc(OS(=O)(=O)c2cccc3cnccc23)cc1)C(=O)N1CCN(Cc2ccc([N+](=O)[O-])cc2)CC1)S(=O)(=O)c1cccc2cnccc12
t

For this compound, is IC50 lower than 200 nM? Cc1ccccc1N1CCN(C(=O)[C@H](Cc2ccc(OS(=O)(=O)c3cccnc3)cc2)N(C)S(=O)(=O)c2cccnc2)CC1
f

For this compound, is IC50 lower than 200 nM? CN([C@@H](Cc1ccc(OS(=O)(=O)c2cccc3cnccc23)cc1)C(=O)N1CCN(c2ccccc2)CC1)S(=O)(=O)c1cccc2cnccc12 [KN62]
t

For this compound, is IC50 lower than 200 nM? CN([C@@H](Cc1ccc(OS(=O)(=O)c2cccnc2)cc1)C(=O)N1CCN(c2ccccc2)CC1)S(=O)(=O)c1cccnc1
f

For this compound, is IC50 lower than 200 nM? CN([C@@H](Cc1ccc(OS(=O)(=O)c2cccc3cnccc23)cc1)C(=O)N1CCN(c2ccccc2F)CC1)S(=O)(=O)c1cccc2cnccc12
t

For this compound, is IC50 lower than 200 nM? CN([C@@H](Cc1ccc(OS(=O)(=O)c2cccc3cnccc23)cc1)C(=O)N1CCN(c2ccc(C#N)cc2)CC1)S(=O)(=O)c1cccc2cnccc12
t
